Read-out: Collagen IV, COL4A1 (gene 1282)
assay details: BSK_MyoF_CollagenIV: BioMAP Diversity Plus: MyoF Assay for Collagen IV Biomarker Activity (AID 2284247)
assay conditions: primary human lung fibroblasts
The source made the active and inactive calls. The calls were made as follows: active = hit-call score of the fitted dose curve at least 0.9, where 1 is the maximum; inactive = score below 0.9.
Outcome field: choose from active, inactive

Solved cases below.
[
  {
    "compound": "CCCCCCCCCCCCN(C)C",
    "discrete label": "inactive"
  },
  {
    "compound": "CCOP(=O)(OCC)SCCSCC",
    "discrete label": "inactive"
  },
  {
    "compound": "CC(C=O)Cc1ccc2c(c1)OCO2 (configuration not stated)",
    "discrete label": "inactive"
  }
]

Moving on to another compound below.
What outcome does the record of this test show for [Cl][Sn]([c]1ccccc1)([c]1ccccc1)[c]1ccccc1 ? active
